Test system: KM12
Assay remarks: NCI tumour cell line growth inhibition, 48 h
Active and inactive are the calls of the source. Cut-off read from the data, not from the text of the source: active = GI50 up to about 1.1 µM and inactive = higher.
As shown below, each of these compounds has a reported GI50 value.

>>> endpoint_result("Cc1occc1C(=S)Nc1ccc(Cl)c(/C=N/OC(C)C)c1")
"20 µM (inactive)"
>>> endpoint_result("O=C(ON=C1c2ccccc2C(Br)C(Br)c2ccccc21)c1ccccc1 (stereo unspecified)")
"17.9 µM (inactive)"
>>> endpoint_result("O=C(/C=C/c1cccc([N+](=O)[O-])c1)c1cccnc1")
"19.9 µM (inactive)"
>>> endpoint_result("CC(=O)NC(CCCCNCc1ccccc1)C(=O)NCc1ccccc1 (stereo unspecified)")
"> 100 µM (inactive)"
>>> endpoint_result("O=C1CC(C(O)C(O)C(O)CO)CC(=O)N1 (stereo unspecified)")
"> 100 µM (inactive)"

# compound "Cc1nc2ccccc2[nH]/c1=N/Nc1ccccc1" ; its GI50 = 14.5 µM (inactive)

----------
Test system: SK-MEL-28
Assay remarks: NCI tumour cell line growth inhibition, 48 h
The source made the active and inactive calls. Cut-off read from the data, not from the text of the source: active = GI50 up to about 1.1 µM and inactive = higher.
As shown below, each of these compounds has a reported GI50 value.

>>> endpoint_result("CN[C@H](C)[C@@H](OC)c1ccccc1")
"> 100 µM (inactive)"
>>> endpoint_result("COC(=O)/N=[N+](\\[O-])C(c1ccc(Cl)cc1)c1ccc(Cl)cc1")
"50.4 µM (inactive)"
>>> endpoint_result("CC(=O)OC1(C#N)CC2OC1C1NC21 (stereo unspecified)")
"> 100 µM (inactive)"
>>> endpoint_result("CCCCCCCCCCCCCCCCCCNC(=O)OCC(CNS(=O)(=O)CCC[n+]1cccc2ccccc21)COC (stereo unspecified)")
"4.74 µM (inactive)"
>>> endpoint_result("Cc1cc2cc3cc(C)c(N)cc3nc2cc1N [ACRIDINE YELLOW]")
"1.51 µM (inactive)"
>>> endpoint_result("Cc1ccc(-c2c(C#N)c(-c3ccc(N(C)C)cc3)c(C#N)c(=O)n2NS(=O)(=O)c2ccccc2)cc1")
"45.9 µM (inactive)"

Item "O=c1[nH]nc(-c2ccccc2)n1-c1ccncc1" was tested on SK-MEL-28; the reported GI50 is > 100 µM (inactive)

Item "CCN(CC)c1ccc(/N=C2/C=CC(=O)c3ncccc32)c(C)c1" was tested on SK-MEL-28; the reported GI50 is 11.8 µM (inactive)

Item COc1nc2ccc(CNc3ccc(C(=O)NC(CCC(=O)O)C(=O)O)cc3)cc2nc1OC (stereo unspecified) was tested on SK-MEL-28; the reported GI50 is > 100 µM (inactive)

Item O=c1[nH]c(N/N=C\C(O)C(O)C(O)CO)nc2ccccc12 (stereo unspecified) was tested on SK-MEL-28; the reported GI50 is > 100 µM (inactive)

Item "CN(CCN(C)C(=O)CCOS(C)(=O)=O)C(=O)CCOS(C)(=O)=O" was tested on SK-MEL-28; the reported GI50 is > 100 µM (inactive)

----------
System: NCI-H460
Assay remarks: NCI tumour cell line growth inhibition, 48 h
The source made the active and inactive calls. Rule as the data show it: active = GI50 up to about 1.1 µM and inactive = higher.
Outcomes you can answer with include only these: active, inactive

I'd appreciate the recorded outcome for "O=C(O)c1ccccc1NS(=O)(=O)c1ccc([N+](=O)[O-])cc1" from this test.
inactive

I'd appreciate the recorded outcome for "CN(CCN(C)C(=O)CCOS(C)(=O)=O)C(=O)CCOS(C)(=O)=O" from this test.
inactive

I'd appreciate the recorded outcome for COc1cc(-c2coc3c(OC)c(OC4OC(CO)C(O)C(O)C4O)c(OC)cc3c2=O)cc(OC)c1C (stereo not given) from this test.
inactive

I'd appreciate the recorded outcome for "COc1ccc2c(=O)c3cc([N+](=O)[O-])ccc3n(C)c2c1" from this test.
inactive

I'd appreciate the recorded outcome for Cc1cccc(C)c1N1C(=O)C2c3[nH]c4ccccc4c3C3CCC(C(C)(C)C)CC3C2C1=O (stereo not given) from this test.
inactive

I'd appreciate the recorded outcome for "CNC(=O)N1CCN(C(=O)NC)CCN(C(=O)NC)CC1" from this test.
inactive

I'd appreciate the recorded outcome for CCOC1SC(SC)=NN1C(=O)C(OC(C)=O)C(OC(C)=O)C(OC(C)=O)C(OC(C)=O)C(=O)N1N=C(SC)SC1OCC (stereo not given) from this test.
inactive

The measured values listed here are drawn from ChEMBL document CHEMBL1201862.
